Provenance of the data: patent EP0103381B1

Tested on: Escherichia coli
experimental.protocol: agar plate paper-disc inhibition zone screening
Assay type: cell-based
measurement.setup: Dose 3.0 mg/ml, read-out: Inhibition Zone Diameter mm (Dose mg/ml) E. Coli
value.type: zone of inhibition at 3000 µg/mL (mm)
Express your answer in mm, writing the number without its unit.

1. CN(C)CCCn1nc2c3c(c(NCCCN)ccc31)C(=O)c1c(O)ccc(O)c1-2 ... 14
2. CCN(CC)CCCCCCCNc1ccc2c3c(nn2CCO)-c2ccccc2C(=O)c13 ... 0
3. O=C1c2c(O)ccc(O)c2-c2nn(CCO)c3ccc(NCCNCCO)c1c23 ... 0
4. O=C1c2ccccc2-c2nn(CCO)c3ccc(NCCNCCO)c1c23 ... 14
5. Cn1nc2c3c(c(NCCN)ccc31)C(=O)c1c(O)ccc(O)c1-2 ... 14

Exercise: Provide measured zone of inhibition at 3000 µg/mL value, entry: CN(CCO)CCn1nc2c3c(c(Cl)ccc31)C(=O)c1c(O)ccc(O)c1-2
Solution: 14

Exercise: Provide measured zone of inhibition at 3000 µg/mL value, entry: CCN(CC)CCCNc1ccc2c3c(nn2CCN(CC)CC)-c2ccccc2C(=O)c13
Solution: 15

Exercise: Provide measured zone of inhibition at 3000 µg/mL value, entry: COCCn1nc2c3c(c(NCCN)ccc31)C(=O)c1c(O)ccc(O)c1-2
Solution: 16

Exercise: Provide measured zone of inhibition at 3000 µg/mL value, entry: O=C1c2ccccc2-c2n[nH]c3ccc(NCCNCCO)c1c23
Solution: 0

Exercise: Provide measured zone of inhibition at 3000 µg/mL value, entry: O=C1c2c(O)ccc(O)c2-c2nn(CCNCCO)c3ccc(NCCN4CCOCC4)c1c23
Solution: 14

Exercise: Provide measured zone of inhibition at 3000 µg/mL value, entry: O=C1c2ccccc2-c2nn(CCO)c3ccc(NCCN4CCOCC4)c1c23
Solution: 16

Exercise: Provide measured zone of inhibition at 3000 µg/mL value, entry: NCCNc1ccc2c3c(nn2CCO)-c2c(O)ccc(O)c2C(=O)c13
Solution: 0

Exercise: Provide measured zone of inhibition at 3000 µg/mL value, entry: CCCCCCNc1ccc2c3c(nn2CCN(CC)CC)-c2ccccc2C(=O)c13
Solution: 0
